test system: Plasma; test: Anticoagulant potency in human plasma assessed as concentration required to double activated partial thromboplastin time; format: functional, cell-free
# Activity listing for each entry below
Readout Label: Activity (µM)

[[record]]
compound = "Cc1ncn(CC(=O)NC2CC(N)C2)c1Cn1c(C)ccc(NS(=O)(=O)Cc2ccccc2)c1=O (centres undefined)"
reported = 0.65

[[record]]
compound = "CCC(C)(C)NC(=O)Cn1cnc(C)c1Cn1c(C)ccc(NS(=O)(=O)Cc2ccccc2)c1=O"
reported = 0.56

[[record]]
compound = "Cc1ncn(CC(=O)NCC(C)(C)N)c1Cn1c(C)ccc(NS(=O)(=O)Cc2ccccc2)c1=O"
reported = 0.26

[[record]]
compound = "CCNC(=O)Cn1cnc(C)c1Cn1c(C)ccc(NS(=O)(=O)Cc2ccccc2)c1=O"
reported = 0.7

[[record]]
compound = "Cc1ncn(CC(=O)NC2CCCNC2)c1Cn1c(C)ccc(NS(=O)(=O)Cc2ccccc2)c1=O (centres undefined)"
reported = 0.35

[[record]]
compound = "Cc1ncn(CC(=O)NC2CC2)c1Cn1c(C)ccc(NS(=O)(=O)Cc2ccccc2)c1=O"
reported = 0.68

[[record]]
compound = "Cc1nc[nH]c1CNC(=O)Cn1c(C)ccc(NS(=O)(=O)Cc2ccccc2)c1=O"
reported = 1.1

[[record]]
compound = "Cc1ncn(CC(=O)NC2CCCNC2)c1CNC(=O)Cn1c(C)cnc(NCCc2ccccc2)c1=O (centres undefined)"
reported = 0.7

[[record]]
compound = "Cc1ncn(CC(=O)NC(C)(C)CN)c1Cn1c(C)ccc(NS(=O)(=O)Cc2ccccc2)c1=O"
reported = 0.32

